- measurement_description: Drug excretion in human urine at 10 to 50 mg, po administered as single dose up to 36 hrs
- Type: ADME, organism-based
- applied_conditions: read-out: Drug excretion
reported_metric: dose excreted at 36 h

>>> reported_result("CC(=O)Nc1cc(-c2c(-c3ccc(F)cc3)nc([S+](C)[O-])n2C)ccn1 (stereo unspecified)")
"6%"

###

- measurement_description: Toxicity in cynomolgus monkey for 28 days
- Parameters: species or system Macaca fascicularis
- applied_conditions: in vivo
reported_metric: NOAEL at 672 h

>>> reported_result("CC(=O)Nc1cc(-c2c(-c3ccc(F)cc3)nc([S+](C)[O-])n2C)ccn1 (stereo unspecified)")
"> 25 mg/kg"
